// intracellular M.tb growth inhibition lookup, one value per entry
System: THP-1 macrophages infected with Mycobacterium tuberculosis H37Rv
Test: intracellular M.tb growth inhibition relative to DMSO (0) and 4 uM bedaquiline (100); higher = stronger inhibition of intracellular bacterial growth
Settings: 10 µM; 4 days
Structures can show the parent of a compound that is named as a salt.
The reply should contain only the number, in %.

INSERT INTO assay_data (compound, endpointlabel, datavalue) VALUES
  ('CN(C)CC(C)(C)CNc1nn2c(-c3ccccc3)nnc2cc1C1CCC1', 'intracellular M.tb growth inhibition', -56.3);

Input: # input compound: Cc1cccc(-c2nn(C(=S)Nc3ccccc3)cc2-c2ccnc3ccccc23)n1 ; wanted: its intracellular M.tb growth inhibition
Output: 17.7

Input: Another: CN1CCC(CNc2ccc3ncc(-c4cccc(OC(F)(F)F)c4)n3n2)CC1
Output: 89.1

Input: Another: O=C(O)c1cc(N(Cc2ccccc2O)Cc2cc(O)ccc2O)ccc1O
Output: 10.4

Input: Another: CCc1cc(Nc2nccc(-c3c(-c4ccc(OC)c(C(=O)Nc5c(F)cccc5F)c4)nc4ccccn34)n2)c(OC)cc1N1CCC(N2CCN(S(C)(=O)=O)CC2)CC1
Output: -49.9

Input: Another: COc1cc2ncnc(Nc3ccc(O)c(Br)c3)c2cc1OC
Output: 13.5

Input: Another: CN1CCC(Nc2ncc3ncnc(Nc4ccc(F)c(Cl)c4)c3n2)CC1 [BIBX 1382 dihydrochloride]
Output: 64.2

Input: Another: CN(C)CCOc1ccc(-c2nc(-c3ccncc3)c(-c3ccc4c(c3)CC/C4=N\O)[nH]2)cc1
Output: 35.2

Input: Another: O=C1C(Cl)=C(NCCN2CCOCC2)C(=O)c2ncccc21
Output: -3.64

Input: Another: COc1ccc(CNC(=O)Nc2ncc([N+](=O)[O-])s2)cc1
Output: 20.1
